Listed here are binders together with their documented Kd.
molecular target: Ile83Glu memAb anti-HER2 IgG; experiment: SPR; Ile83Glu memAb anti-HER2 amine-coupled on a CM5 chip, meditope flowed over at 30 uL/min, HBS-EP+, 37 °C, 1:1 model, global fit, n=4, standard deviation
Sequence (heavy, as listed by the source, chain 1 of 2): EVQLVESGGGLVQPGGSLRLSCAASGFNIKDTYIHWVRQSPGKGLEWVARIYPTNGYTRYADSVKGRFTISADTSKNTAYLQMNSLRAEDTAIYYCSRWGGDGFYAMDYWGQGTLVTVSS
Sequence (light, as listed by the source, chain 2 of 2): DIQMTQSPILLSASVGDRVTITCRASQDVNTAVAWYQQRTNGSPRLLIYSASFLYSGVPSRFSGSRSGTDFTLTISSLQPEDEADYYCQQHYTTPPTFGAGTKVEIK
Positions of bridges follow the written chain, without caps; N, C: chain ends. No end group written: not given here.

Binder	Kd
CQFDLSTRRLKC (disulfide 1-12) [original meditope …]	20 nM
Ac-CQFDLSTRRLRCGGSK (disulfide 1-12 (inferred)) [long meditope (Ac)…]	4 nM

Origin of the recorded values: paper PMC5910394
